Test system: RAW264.7
Experiment: Cytotoxicity against mouse RAW264.7 cells assessed as effect on cell viability measured after 12 hrs by MTT assay
Assay type: functional
Returns: string. Value is TRUE if measured CC50 is below 600 µM, and FALSE if it is greater than or equal to it.

[in] Report whether reported CC50 is lower than 600 µM (strictly) for CCCCC(CC(=O)O)c1c2c(c(O)c3c1O[C@H](C)[C@@H](C)C3=O)C=CC(C)(C)O2 (stereo partly drawn)
[out] FALSE

[in] Report whether reported CC50 is lower than 600 µM (strictly) for CCCCCC(CC(=O)O)c1c2c(c(O)c3c1O[C@H](C)[C@@H](C)C3=O)C=CC(C)(C)O2 (stereo partly drawn)
[out] FALSE

[in] Report whether reported CC50 is lower than 600 µM (strictly) for C[C@H](C(=O)c1c(O)c2c(c3c1OC(=O)C[C@H]3c1ccccc1)OC(C)(C)C=C2)[C@@H](C)O
[out] TRUE

[in] Report whether reported CC50 is lower than 600 µM (strictly) for CCCC[C@H](CC(=O)OC)c1c2c(c(O)c3c1O[C@@H](C)[C@H](C)C3=O)C=CC(C)(C)O2
[out] TRUE

[in] Report whether reported CC50 is lower than 600 µM (strictly) for CCCCC[C@H](CC(=O)OC)c1c(O)c2c(c3c1OC(C)(C)C=C3)O[C@H](C)[C@H](C)C2=O
[out] FALSE

[in] Report whether reported CC50 is lower than 600 µM (strictly) for CC/C=C\C[C@H](CC(=O)O)c1c2c(c(O)c3c1O[C@@H](C)[C@H](C)C3=O)C=CC(C)(C)O2
[out] TRUE

* * *

Tested on: RAW264.7
Assay: Cytotoxicity against mouse RAW264.7 cells assessed as effect on cell viability measured after 12 hrs by MTT assay
Format: functional
So I've got a bunch of compounds here, and I need their CC50 values.
Give just the number in µM; leave the unit off.

CC50 in this record for CCCC(CC(=O)OC)c1c2c(c(O)c3c1O[C@H](C)[C@@H](C)C3=O)C=CC(C)(C)O2 (stereo partly drawn) : 649

CC50 in this record for C[C@@H]1Oc2c(c(O)c3c(c2[C@@H](CC(=O)O)c2ccccc2)OC(C)(C)C=C3)C(=O)[C@H]1C : 569

CC50 in this record for CCC[C@@H](CC(=O)OC)c1c(O)c2c(c3c1OC(C)(C)C=C3)O[C@@H](C)[C@H](C)C2=O : 698

CC50 in this record for C[C@H]1Oc2c(c(O)c3c(c2[C@@H](CC(=O)O)c2ccccc2)OC(C)(C)C=C3)C(=O)[C@@H]1C : 524

CC50 in this record for C[C@H](O)[C@H](C)C(=O)c1c(O)c2c(c3c1OC(=O)C[C@H]3c1ccccc1)OC(C)(C)C=C2 : 517

CC50 in this record for CCCCC[C@H](CC(=O)O)c1c(O)c2c(c3c1OC(C)(C)C=C3)O[C@H](C)[C@H](C)C2=O : 636

CC50 in this record for CCCC(CC(=O)O)c1c2c(c(O)c3c1O[C@H](C)[C@@H](C)C3=O)C=CC(C)(C)O2 (stereo partly drawn) : 663

CC50 in this record for CNC(=N)NCCC[C@H](N)C(=O)O [TILARGININE ACETATE] : 214
